From: patent US12410208B2

Biological target: UniProt P17931
Assay: Competitive binding assay: biotinylated hGal-3 binding to microplate-adsorbed asialofetuin (ASF), spectrophotometric
Details: Gal-3 inhibition, Table 4; read-out: IC50
MEASUREMENT TYPE: log10 of IC50 (log10 of the value in nM)
Response schema: value (number) is log10 of IC50 in units of nM.

Worked examples follow.
>  <COMPOUND>
CN(CCC1CCOCC1)C(=O)[C@@H](S[C@@H]1O[C@H](CO)[C@H](O)[C@H](n2cc(-c3cc(F)c(F)c(F)c3)nn2)[C@H]1O)C1(O)CCOCC1 [Example 2.41.216S.]

>  <log10 of IC50>
1.30

$$$$
>  <COMPOUND>
O=C(C(S[C@@H]1O[C@H](CO)[C@H](O)[C@H](n2cc(-c3cc(F)c(F)c(F)c3)nn2)[C@H]1O)C1(O)CCOCC1)N1CCC1 (some centres unmarked) [Example 2.41.206.]

>  <log10 of IC50>
2.41

$$$$
>  <COMPOUND>
CN(C)C(=O)[C@@H](S[C@@H]1O[C@H](CO)[C@H](O)[C@H](n2cc(-c3cc(F)c(F)c(F)c3)nn2)[C@H]1O)C1(O)CCOCC1 [Example 2.41.201S.]

>  <log10 of IC50>
1.78

$$$$
>  <COMPOUND>
CN1CCC(O)(C(S[C@@H]2O[C@H](CO)[C@H](O)[C@H](n3cc(-c4cc(F)c(F)c(F)c4)nn3)[C@H]2O)C(=O)N(C)Cc2ccccc2)CC1 (some centres unmarked) [Example 2.40.207.]

>  <log10 of IC50>
1.95

$$$$

Now for a further compound.
Qu. What measured log10 of IC50 goes with CCN(CC1CCOCC1)C(=O)C(S[C@@H]1O[C@H](CO)[C@H](O)[C@H](n2cc(-c3cc(F)c(F)c(F)c3)nn2)[C@H]1O)C1(O)CCOCC1 (some centres unmarked) [Example 2.41.214.] ?
Ans. 1.48

---

The molecules listed here are annotated with their pIC50.
Target: UniProt:P17931
Test: Competitive binding assay: biotinylated hGal-3 binding to microplate-adsorbed asialofetuin (ASF), spectrophotometric
Details: Table 8; hGal-3; read-out: IC50 (Gal-3 inhibition)
Please treat pIC50 as minus the base-10 logarithm of the molar concentration.

# count of solved cases: 3
>  <MOLECULE>
CCN(C)C(=O)[C@@H](S[C@@H]1O[C@H](CO)[C@H](O)[C@H](n2cc(-c3cc(F)c(F)c(F)c3)nn2)[C@H]1O)C1(O)CCN(C(=O)OC)CC1 [Example 2.50.203S.]

>  <pIC50>
7.40

$$$$
>  <MOLECULE>
CCN(C)C(=O)C(S[C@@H]1O[C@H](CO)[C@H](O)[C@H](n2cc(-c3cc(F)c(F)c(F)c3)nn2)[C@H]1O)C1(O)CCN(C(=O)OC)CC1 (some centres unmarked) [Example 2.50.203.]

>  <pIC50>
7.15

$$$$
>  <MOLECULE>
CCN(C)C(=O)[C@@H](S[C@@H]1O[C@H](CO)[C@H](O)[C@H](n2cc(-c3cc(F)c(F)c(F)c3)nn2)[C@H]1OC)C1(O)CCN(C(=O)NC2CC2)CC1 [Example 2.49.226S.I.]

>  <pIC50>
7.22

$$$$

Qu. Returns the measured pIC50 for the input molecule. Input: CCN(C)C(=O)[C@H](S[C@@H]1O[C@H](CO)[C@H](O)[C@H](n2cc(-c3cc(F)c(F)c(F)c3)nn2)[C@H]1OC)C1(O)CCN(C(=O)NC2CC2)CC1 [Example 2.49.226R.I.]
Ans. 5.76

Qu. What value of pIC50 has been reported for the following molecule? CCN(C)C(=O)[C@H](S[C@@H]1O[C@H](CO)[C@H](O)[C@H](n2cc(-c3cc(F)c(F)c(F)c3)nn2)[C@H]1O)C1(O)CCN(C(=O)OC)CC1 [Example 2.50.203R.]
Ans. 5.35

Qu. What value of pIC50 has been recorded for this entry: CCN(C)C(=O)C(S[C@@H]1O[C@H](CO)[C@H](O)[C@H](n2cc(-c3cc(F)c(F)c(F)c3)nn2)[C@H]1O)C1(O)CCN(C(=O)NC2CC2)CC1 (some centres unmarked) [Example 2.49.203.]
Ans. 7.30

Qu. Value lookup for pIC50; key = CCN(C)C(=O)[C@@H](S[C@@H]1O[C@H](CO)[C@H](O)[C@H](n2cc(-c3cc(F)c(F)c(F)c3)nn2)[C@H]1O)C1(O)CCN(C(=O)NC2CC2)CC1 [Example 2.49.203S.]
Ans. 7.40

Qu. Given the entry CCN(C)C(=O)C(S[C@@H]1O[C@H](CO)[C@H](O)[C@H](n2cc(-c3cc(F)c(F)c(F)c3)nn2)[C@H]1O)C1(O)CCN(S(C)(=O)=O)CC1 (single isomer, unassigned) [Example 2.47.203S.] , report its measured pIC50.
Ans. 8.00

Qu. Look up pIC50 for this molecule: CCN(C)C(=O)C(S[C@@H]1O[C@H](CO)[C@H](O)[C@H](n2cc(-c3cc(F)c(F)c(F)c3)nn2)[C@H]1O)C1(O)CCN(S(C)(=O)=O)CC1 (mixture of isomers) [Example 2.47.203.]
Ans. 7.52

Qu. Form field: reported pIC50 of CCN(C)C(=O)C(S[C@@H]1O[C@H](CO)[C@H](O)[C@H](n2cc(-c3cc(F)c(F)c(F)c3)nn2)[C@H]1O)C1(O)CCN(S(=O)(=O)C2CC2)CC1 (some centres unmarked) [Example 2.51.203.]
Ans. 7.52

Qu. For the molecule shown here, CCN(C)C(=O)[C@H](S[C@@H]1O[C@H](CO)[C@H](O)[C@H](n2cc(-c3cc(F)c(F)c(F)c3)nn2)[C@H]1O)C1(O)CCN(C(=O)NC2CC2)CC1 [Example 2.49.203R.] , give the reported pIC50.
Ans. 5.58

---

Entries and their IC50
Biological target: biotinylated human Gal-3 (hGal-3) (Homo sapiens, UniProt P17931)
Sequence (P17931 whole entry): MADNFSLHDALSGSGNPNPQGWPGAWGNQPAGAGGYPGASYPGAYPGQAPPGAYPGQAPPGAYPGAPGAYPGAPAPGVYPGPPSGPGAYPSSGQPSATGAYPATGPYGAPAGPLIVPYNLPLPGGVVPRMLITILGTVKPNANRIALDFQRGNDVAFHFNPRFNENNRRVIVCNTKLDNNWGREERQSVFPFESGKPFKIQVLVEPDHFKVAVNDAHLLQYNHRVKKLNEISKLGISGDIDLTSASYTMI
Assay: Competitive binding assay: biotinylated hGal-3 binding to microplate-adsorbed asialofetuin (ASF), spectrophotometric
Conditions: Table 6; hGal-3; read-out: IC50 (Gal-3 inhibition)
# output: bare number, implied unit µM

Look over these answered cases.
>  <COMPOUND>
CN(Cc1cn(C)cn1)C(=O)C(S[C@@H]1O[C@H](CO)[C@H](O)[C@H](n2cc(-c3cc(F)c(F)c(F)c3)nn2)[C@H]1O)C(C)(C)O (stereo partly drawn) [Example 2.31.215.]

>  <ENDPOINT UNIT>
µM

>  <IC50>
0.19

$$$$
>  <COMPOUND>
CC(C)(O)[C@@H](S[C@@H]1O[C@H](CO)[C@H](O)[C@H](n2cc(-c3cc(F)c(F)c(F)c3)nn2)[C@H]1O)C(=O)N1CCCC1 [Example 2.31.211R.]

>  <ENDPOINT UNIT>
µM

>  <IC50>
0.31

$$$$

Now consider a different compound.
Qu. Suppose we examine the compound CCC(O)(CC)C(S[C@@H]1O[C@H](CO)[C@H](O)[C@H](n2cc(-c3cc(F)c(F)c(F)c3)nn2)[C@H]1O)C(=O)N(C)CC1CC1 (stereo partly drawn) [Example 2.32.218.] ; what IC50 value has been reported?
Ans. 0.71

---

Target: biotinylated human Gal-3 (hGal-3) (Homo sapiens)
Experiment: Competitive binding assay: biotinylated hGal-3 binding to microplate-adsorbed asialofetuin (ASF), spectrophotometric
Conditions: Gal-3 inhibition, Table 5; read-out: IC50
Each entry below carries its recorded IC50.

Observe how each entry below is paired with its result.
>  <COMPOUND>
CN(CC(F)(F)F)C(=O)[C@H](S[C@@H]1O[C@H](CO)[C@H](O)[C@H](n2cc(-c3cc(F)c(F)c(F)c3)nn2)[C@H]1O)C1(O)CCCCC1 [Example 2.39.219R.]

>  <RESULT>
0.27 µM

$$$$
>  <COMPOUND>
CN(CC1CC1)C(=O)[C@@H](S[C@@H]1O[C@H](CO)[C@H](O)[C@H](n2cc(-c3cc(F)c(F)c(F)c3)nn2)[C@H]1O)C1(O)CCC(F)(F)CC1 [Example 2.44.218S.]

>  <RESULT>
0.05 µM

$$$$

Okay, now this compound:
Qu. Item: CCN(CC1CC1)C(=O)C(S[C@@H]1O[C@H](CO)[C@H](O)[C@H](n2cc(-c3cc(F)c(F)c(F)c3)nn2)[C@H]1O)C1(O)CCOCC1 (stereo partly drawn) [Example 2.41.236.] Test system: biotinylated human Gal-3 (hGal-3) (Homo sapiens) Read-out: IC50 Value: ?
Ans. 4.47 µM

---

Biological target: human Gal-1 (hGal-1) (Homo sapiens)
Sequence (P09382 whole entry): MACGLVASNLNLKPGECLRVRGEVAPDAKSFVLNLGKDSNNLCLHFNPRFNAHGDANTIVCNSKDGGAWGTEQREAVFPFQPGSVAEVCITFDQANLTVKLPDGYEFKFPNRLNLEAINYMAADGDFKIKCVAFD
pIC50: −log10 of the molar value.
# binarize pIC50: threshold 7 inclusive, high side label 1, low side label 0

# example entries with known answers
>  <MOLECULE>
CO[C@@H]1[C@@H](n2cc(-c3cc(F)c(F)c(F)c3)nn2)[C@@H](O)[C@@H](CO)O[C@H]1SC(C(=O)NCC(F)(F)F)C1(O)CCC(F)(F)CC1 (some centres unmarked) [Example 2.44.254.I.]

>  <CATEGORY LABEL>
label 0

$$$$
>  <MOLECULE>
CN(C(=O)[C@@H](S[C@@H]1O[C@H](CO)[C@H](O)[C@H](n2cc(-c3cc(F)c(F)c(F)c3)nn2)[C@H]1O)C1(O)CCOCC1)c1ccccn1 [Example 2.41.233S.]

>  <CATEGORY LABEL>
label 1

$$$$

Qu. Form field: pIC50 at least 7? Entry: CC1CN(C(=O)[C@@H](S[C@@H]2O[C@H](CO)[C@H](O)[C@H](n3cc(-c4cc(F)c(F)c(F)c4)nn3)[C@H]2O)C(C)(C)O)C1 [Example 2.31.205S.]
Ans. label 0

Qu. Reported pIC50 at or above 7? CN(CC(C)(C)C)C(=O)[C@H](S[C@@H]1O[C@H](CO)[C@H](O)[C@H](n2cc(-c3cc(F)c(F)c(F)c3)nn2)[C@H]1O)C1(O)CCC1 [Example 2.34.228R.]
Ans. label 0
